The reported measurements were obtained from paper doi:10.1101/2024.06.17.599304v1.

target: hGluN1/hGluN2B (Homo sapiens, UniProt Q05586+Q13224); experiment: whole-cell patch clamp, HEK293; conditions: -60 mV; 1 mM L-glutamate, 100 µM glycine; pH 7.3; voltage-dependent block
Sequence (Q13224 27-1484, other chains not shown): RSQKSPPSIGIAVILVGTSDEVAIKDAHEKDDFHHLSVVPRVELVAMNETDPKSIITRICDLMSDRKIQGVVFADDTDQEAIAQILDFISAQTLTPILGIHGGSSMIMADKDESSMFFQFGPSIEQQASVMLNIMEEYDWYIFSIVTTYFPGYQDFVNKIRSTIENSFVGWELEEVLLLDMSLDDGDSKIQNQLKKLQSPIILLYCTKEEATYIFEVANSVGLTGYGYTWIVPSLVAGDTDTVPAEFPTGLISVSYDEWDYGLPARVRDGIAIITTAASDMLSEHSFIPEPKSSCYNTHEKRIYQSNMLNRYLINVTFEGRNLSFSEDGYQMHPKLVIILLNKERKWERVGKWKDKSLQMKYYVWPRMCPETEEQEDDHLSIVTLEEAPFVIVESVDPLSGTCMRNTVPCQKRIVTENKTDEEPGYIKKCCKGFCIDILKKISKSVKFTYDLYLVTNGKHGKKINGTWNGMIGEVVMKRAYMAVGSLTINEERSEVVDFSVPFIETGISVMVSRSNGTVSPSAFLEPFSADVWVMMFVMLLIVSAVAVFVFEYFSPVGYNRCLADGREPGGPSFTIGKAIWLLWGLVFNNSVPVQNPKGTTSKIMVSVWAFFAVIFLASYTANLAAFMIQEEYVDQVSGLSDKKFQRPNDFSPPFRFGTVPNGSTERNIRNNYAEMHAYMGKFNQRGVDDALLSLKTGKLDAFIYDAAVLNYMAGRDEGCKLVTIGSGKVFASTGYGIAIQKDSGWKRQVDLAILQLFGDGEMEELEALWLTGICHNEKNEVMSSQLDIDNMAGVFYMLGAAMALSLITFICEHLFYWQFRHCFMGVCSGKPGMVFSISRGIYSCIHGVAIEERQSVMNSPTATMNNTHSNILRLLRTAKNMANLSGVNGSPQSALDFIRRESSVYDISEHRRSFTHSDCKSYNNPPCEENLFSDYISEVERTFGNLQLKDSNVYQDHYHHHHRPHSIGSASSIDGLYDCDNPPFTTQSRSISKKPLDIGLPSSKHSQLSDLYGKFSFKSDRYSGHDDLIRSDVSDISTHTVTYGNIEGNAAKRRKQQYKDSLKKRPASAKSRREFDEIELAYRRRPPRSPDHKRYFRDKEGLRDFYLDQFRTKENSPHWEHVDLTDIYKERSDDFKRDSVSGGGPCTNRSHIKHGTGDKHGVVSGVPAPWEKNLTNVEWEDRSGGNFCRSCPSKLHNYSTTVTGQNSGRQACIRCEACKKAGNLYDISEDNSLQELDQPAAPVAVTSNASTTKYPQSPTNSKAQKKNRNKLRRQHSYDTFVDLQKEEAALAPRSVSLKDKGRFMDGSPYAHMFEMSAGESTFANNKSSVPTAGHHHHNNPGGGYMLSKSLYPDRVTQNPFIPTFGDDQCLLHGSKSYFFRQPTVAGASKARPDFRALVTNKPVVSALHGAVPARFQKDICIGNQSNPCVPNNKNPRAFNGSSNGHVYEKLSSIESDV
pIC50: −log10 of the molar value.
Listing: pIC50 of selected compounds

| QUERY SMILES | pIC50 |
| --- | --- |
| CC(C)CNC1c2ccccc2C=Cc2ccccc21 | 6.80 |
| OCCNC1c2ccccc2CCc2ccccc21 | 5.36 |

---

biological target: hGluN1/hGluN2A (Homo sapiens, UniProt Q05586+Q12879); assay: whole-cell patch clamp, HEK293; details: -60 mV; 1 mM L-glutamate, 100 µM glycine; pH 7.3; voltage-dependent block
Sequence (Q12879 23-1464, other chains not shown): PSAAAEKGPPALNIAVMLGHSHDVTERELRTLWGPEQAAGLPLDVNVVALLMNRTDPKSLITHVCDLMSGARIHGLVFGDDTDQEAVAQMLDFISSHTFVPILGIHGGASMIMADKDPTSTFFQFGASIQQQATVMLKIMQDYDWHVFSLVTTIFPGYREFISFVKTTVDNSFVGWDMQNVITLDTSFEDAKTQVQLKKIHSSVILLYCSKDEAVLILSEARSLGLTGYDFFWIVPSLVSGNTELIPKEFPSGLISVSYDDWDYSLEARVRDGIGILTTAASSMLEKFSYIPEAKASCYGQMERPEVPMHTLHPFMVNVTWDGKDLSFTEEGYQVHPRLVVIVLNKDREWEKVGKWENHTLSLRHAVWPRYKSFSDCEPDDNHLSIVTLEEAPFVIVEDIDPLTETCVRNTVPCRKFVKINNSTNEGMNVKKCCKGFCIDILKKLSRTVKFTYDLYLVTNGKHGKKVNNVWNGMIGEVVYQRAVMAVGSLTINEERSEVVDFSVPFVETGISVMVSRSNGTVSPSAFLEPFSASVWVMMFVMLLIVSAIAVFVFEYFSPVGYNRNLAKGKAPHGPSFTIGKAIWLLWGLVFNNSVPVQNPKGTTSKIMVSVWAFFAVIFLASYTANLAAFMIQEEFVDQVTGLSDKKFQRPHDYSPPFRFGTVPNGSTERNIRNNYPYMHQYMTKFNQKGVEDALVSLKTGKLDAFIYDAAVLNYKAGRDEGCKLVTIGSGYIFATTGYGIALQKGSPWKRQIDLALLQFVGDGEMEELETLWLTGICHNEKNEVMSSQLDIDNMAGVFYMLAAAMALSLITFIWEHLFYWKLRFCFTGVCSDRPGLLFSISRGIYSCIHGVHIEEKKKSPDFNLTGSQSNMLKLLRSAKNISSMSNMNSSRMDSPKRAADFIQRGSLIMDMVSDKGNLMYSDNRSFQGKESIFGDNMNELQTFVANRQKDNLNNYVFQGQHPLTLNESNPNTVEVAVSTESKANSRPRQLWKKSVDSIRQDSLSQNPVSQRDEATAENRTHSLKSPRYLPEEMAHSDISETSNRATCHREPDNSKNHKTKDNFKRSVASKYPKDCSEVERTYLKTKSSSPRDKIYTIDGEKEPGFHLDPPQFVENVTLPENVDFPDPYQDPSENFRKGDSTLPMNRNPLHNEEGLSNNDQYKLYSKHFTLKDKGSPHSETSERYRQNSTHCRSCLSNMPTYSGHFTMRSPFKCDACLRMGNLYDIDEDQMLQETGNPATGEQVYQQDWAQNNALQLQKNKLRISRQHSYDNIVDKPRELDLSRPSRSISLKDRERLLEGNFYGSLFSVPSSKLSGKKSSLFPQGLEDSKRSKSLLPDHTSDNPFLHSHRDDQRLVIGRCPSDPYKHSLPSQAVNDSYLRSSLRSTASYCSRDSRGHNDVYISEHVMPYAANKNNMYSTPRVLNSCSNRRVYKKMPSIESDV
pIC50: −log10 of the molar value.

| QUERY SMILES | pIC50 |
| --- | --- |
| CC(C)CNC1c2ccccc2C=Cc2ccccc21 | 6.44 |
| OCCNC1c2ccccc2CCc2ccccc21 | 5.35 |

---

molecular target: hGluN1/hGluN2B (Homo sapiens, UniProt Q05586+Q13224); assay: cell-based; set-up: gene GRIN1; cDNA vectors for human GluN1-1a and GluN2B co-transfected with GFP in HEK293 cells; diheteromeric receptor; whole-cell voltage-clamp electrophysiology, inhibition of steady-state L-glutamate-induced currents at -60 mV; conditions: HEK293; -60 mV, 1 mM L-glutamate
We use 50% as the dividing line for inhibition at 3 µM: on or above the line is true (1), below is false (0).

| QUERY SMILES | CLASS NAME |
| --- | --- |
| CCNC1c2ccccc2C=Cc2ccccc21 | true (1) |
| CNC1c2ccccc2CCc2ccccc21 | true (1) |
| C1=Cc2ccccc2C(N2CCCC2)c2ccccc21 | true (1) |
| CCNC1c2ccccc2CCc2ccccc21 | true (1) |
| CC(C)CNC1c2ccccc2C=Cc2ccccc21 | true (1) |
| CCCCNC1c2ccccc2C=Cc2ccccc21 | true (1) |
| CN1CCN(C2c3ccccc3CCc3ccccc32)CC1 | false (0) |
| c1ccc2c(c1)CCc1ccccc1C2N1CCCCC1 | false (0) |
| CC(C)NC1c2ccccc2CCc2ccccc21 | true (1) |
| COCCNC1c2ccccc2C=Cc2ccccc21 | true (1) |
| c1ccc2c(c1)CCc1ccccc1C2N1CCCC1 | true (1) |
| CCN1CCN(C2c3ccccc3CCc3ccccc32)CC1 | false (0) |
